Provide the recorded Plant response rating: Mustard, Wild for the entries that follow.
# Test system: mustard, wild (wild mustard, Sinapis arvensis)
# Experiment Summary: Test D pre-/postemergence: mustard, wild
# Type: in vivo
# Condition Info: Postemergence, 62 g ai/ha; scale 0 to 100 (0 no effect, 100 complete control)

Some compounds with known Plant response rating: Mustard, Wild results, for comparison:
FC(F)(F)COc1nn(-c2ccc(C(F)(F)F)cc2)nc1Cc1ccnc(C(F)(F)F)c1 :: 90
Cc1nn(-c2ccc(C(F)(F)F)c(F)c2)nc1Oc1ccnc(C(F)(F)F)c1 :: 100
COc1nn(-c2ccc(C(F)(F)F)cc2)nc1Cc1ccnc(C(F)F)c1 :: 95

Continue with the compound presented below.
Query: Any idea what its Plant response rating: Mustard, Wild is? The compound is Cc1nn(-c2ccc(C(F)(F)F)cn2)nc1Oc1ccnc(C(F)(F)F)c1
Result: 85
